parameter_measured: melting point (°C)

[P] CCC(=O)OCC(C)C
[Q] Brc1ccc(Oc2c(Br)c(Br)c(Br)c(Br)c2Br)cc1
[R] COC(=O)c1cccoc1=O
Ask: Could you arrange the 3 compounds above by melting point, starting with the largest number? Respond with an ordered listing of the labels, as requested.
Reply: Q, R, P
(Q: 184 °C, R: 76 °C, P: -71.4 °C)

[A] C/C(=N\c1ccc(C(=O)O)c(O)c1)c1c(O)c2ccccc2n(-c2ccccc2)c1=O
[B] Cn1ncc2c(NCCN)ncnc21
Ask: Lower melting point: A or B ? Answer format: the label of the selected item.
Reply: A
(A: 177 °C, B: 297 °C)

[A] O=C(O)c1cc2ccsc2s1
[B] CN(C)c1ccc(/C=C(\C#N)c2nc3ccccc3n2C)cc1
Ask: Lower melting point: A or B ? Answer format: the label of the selected item.
Reply: B
(B: 151 °C, A: 236 °C)

[1] O=C(c1noc(-c2ccc([N+](=O)[O-])cc2)c1S(=O)(=O)c1ccccc1)c1cccc2ccccc12
[2] CC1CCC(C(C)C)C(OC(=O)C(=Cc2ccccc2)C(=O)c2ccccc2)C1 (configuration not stated)
[3] CCCCCCCCCCC(C)O (configuration not stated)
Ask: Arrange these compounds by their melting point, starting with the largest number. Respond with an ordered listing of the labels, as requested.
Reply: 1, 2, 3
(1: 160 °C, 2: 65 °C, 3: 19 °C)

---

parameter_measured: melting point (°C)

Reference set, count: 5
compound: COC(=O)[C@@]12[C@H]3c4c(c(-c5ccccc5)c5ccccc5c4-c4ccccc4)[C@@H]1C=C[C@]32C(=O)OC
parameter_measured: melting point
numeric_result: 210
//
compound: Clc1ccccc1-c1ccccc1
parameter_measured: melting point
numeric_result: 34
//
compound: CCOC(=O)c1sc(C2CCN(C(=O)OC(C)(C)C)CC2)nc1C
parameter_measured: melting point
numeric_result: 47
//
compound: COC(=O)NS(=O)(=O)c1ccc(N)cc1
parameter_measured: melting point
numeric_result: 230
//
compound: CC1=NN(c2ccccc2)C(=O)C1Cc1ccccc1O (stereo unspecified)
parameter_measured: melting point
numeric_result: 140

[1] O=Cc1cc(F)ccc1[N+](=O)[O-]
[2] CC(C)(C)CC(C)(C)c1ccc(OCCO)cc1
[3] COc1ccc(-c2cc(N3CCCC3)cc3c2c(=O)n(-c2ccccc2)n3C)cc1
Ask: Arrange these compounds by their melting point, starting with the largest number. Respond with an ordered listing of the labels, as requested.
Reply: 3, 1, 2
(3: 217 °C, 1: 94.5 °C, 2: -4 °C)

---

parameter_measured: melting point (°C)

Reference set, count: 2
molecule: CCOC(=O)CC(SP(=S)(OC)OC)C(=O)OCC (configuration not stated)
parameter_measured: melting point
numeric_result: 2.8

molecule: CC(C)=CC(=O)NS(=O)(=O)c1ccc(N)cc1
parameter_measured: melting point
numeric_result: 184

[1] NSCc1cc2ccccc2oc1=O
[2] O=C1CCCCCCCCCCC(=O)OCCO1
Ask: Lower melting point: 1 or 2 ? Answer format: the label of the selected item.
Reply: 2
(2: 18 °C, 1: 255 °C)

---

parameter_measured: melting point (°C)

Reference set, count: 2
compound: Cc1cc(C)c(NC(=O)C(F)(F)C(F)(F)C(F)(F)C(F)(F)C(F)(F)C(F)(F)C(F)(F)C(F)(F)F)c(C)c1
display_unit: °C
melting point: 63
//
compound: CCN1CC2(COC)CCC(O)C34C5CC6C(OC)CC(O)(C5C6OC)C(O)(C(OC)C23)C14 (stereo not given)
display_unit: °C
melting point: 214

[a] C=O
[b] CCCCCCCC(=O)OCCCCC
[c] C=CCCCCCCCCCCCCCCCCC
[d] Cc1ccc(C(=O)O)c([N+](=O)[O-])c1O
Ask: Ascending sort, melting point. Respond with an ordered listing of the labels, as requested.
Reply: a, b, c, d

[1] OCc1ccc(I)cc1
[2] CCC(C)C(=O)OC1CCC=C2C=CC(C)C(CCC3CC(O)CC(=O)O3)C21 (stereo not given)
Ask: Lower melting point: 1 or 2 ? Answer format: the label of the selected item.
Reply: 1
(1: 73 °C, 2: 152 °C)

[A] CCOc1cc(C(=S)N2CCCCC2)ccc1OCc1ccccc1
[B] C=C1CCC(O)CC1=CC=C1CCCC2(C)C1CCC2C(C)C=CC(C)C(C)C (stereo not given)
Ask: Between the two listed entries A and B , which has its melting point at the higher number? Answer format: the label of the selected item.
Reply: B
(B: 116 °C, A: 72 °C)

[1] O=C(NC1CCN(Cc2ccccc2)C1)C(F)(F)F (stereo not given)
[2] C=CCSC(=O)n1c(N)c(-c2ccccc2C)c(=O)n1C(C)C
Ask: Lower melting point: 1 or 2 ? Answer format: the label of the selected item.
Reply: 1

---

parameter_measured: melting point (°C)

compound: O=C(Oc1ccc2ccccc2c1)c1ccccc1O
melting point, °C: 95.5
//
compound: CCOC(=O)c1[nH]c2cc3[nH]c(C(=O)OCC)c(OC(C)=O)c3cc2c1OC(C)=O
melting point, °C: 178

[P] CCNC(=O)COC(=O)c1ccccc1
[Q] CS(=O)(=O)c1ccc(C(=O)O)c(Cl)c1
Ask: Lower melting point: P or Q ? Answer format: the label of the selected item.
Reply: P

---

parameter_measured: melting point (°C)

Reference set, count: 6
compound: O=C1CCN2C(=O)c3ccccc3CC2C1 (stereo unspecified)
numeric_result: 126
--
compound: N#Cc1ccc(C(F)(F)F)cc1Cl
numeric_result: 83
--
compound: COc1ccc(C#N)cc1OC
numeric_result: 67
--
compound: O=S(=O)(O)CCCN1CCN(CCO)CC1
numeric_result: 231
--
compound: CNc1ccc2cc3ccc(N(C)S(C)(=O)=O)cc3nc2c1CO
numeric_result: 150
--
compound: CCOC(=O)c1sc(-c2ccc(N)cc2)nc1C
numeric_result: 128

[a] N[C@@H]1CC[C@H](C(=O)O)C1
[b] CC(=O)c1ccc(Cl)s1
[c] Nc1cc(C(F)(F)F)ccc1Cl
[d] O=Cc1ccsc1
Ask: Arrange these compounds by their melting point, starting with the largest number. Respond with an ordered listing of the labels, as requested.
Reply: a, b, c, d

[1] CCOC(=O)c1sc2sc(C(=O)OCC)c(N=C3SCCS3)c2c1N=C1SCCS1
[2] COC(=O)C1(C(=O)OC)Cc2c(C)cccc2C(=O)O1
[3] N#Cc1cc(F)cc(Cl)c1
[4] CCCCOC(=O)c1ccccc1O
Ask: Ascending sort, melting point. Respond with an ordered listing of the labels, as requested.
Reply: 4, 3, 2, 1
(4: -5.9 °C, 3: 57 °C, 2: 100 °C, 1: 198 °C)

[I] CC(C)NCC(O)COc1cccc2[nH]ccc12 (stereo unspecified)
[II] Cn1nc(CCNC(=O)c2cc([N+](=O)[O-])cc([N+](=O)[O-])c2)c2c(N)ncnc21
[III] OCc1ccncn1
Ask: Arrange these compounds by their melting point, starting with the largest number. Respond with an ordered listing of the labels, as requested.
Reply: II, I, III
(II: 281 °C, I: 170 °C, III: 77 °C)

---

parameter_measured: melting point (°C)

Reference set, count: 3
compound: c1ccc2c(c1)CC1c3ccccc3CCN1C2 (stereo not drawn)
parameter_measured: melting point
numeric_result: 85
//
compound: Cc1cccc(C)c1OCC(C)N (stereo not drawn)
parameter_measured: melting point
numeric_result: 204
//
compound: ICCCCCCI
parameter_measured: melting point
numeric_result: 9.5

[a] COc1ccc(/C=N/c2nc(C(F)(F)F)n[nH]2)cc1
[b] Cc1cc2c(c(C)c1C)CC2=O
[c] C#CC(O)c1ccccc1 (stereo not drawn)
Ask: Arrange these compounds by their melting point, starting with the largest number. Respond with an ordered listing of the labels, as requested.
Reply: a, b, c
(a: 171 °C, b: 86 °C, c: 28 °C)

---

parameter_measured: melting point (°C)

Reference set, count: 3
molecule: CC(C)CC(C)(C)CC(C)(C)CC(C)(C)C
melting point (°C): -98
//
molecule: O=C(O)c1ccc(N2C(=O)C3ON=C(C(=O)c4ccc(Cl)cc4)C3C2=O)cc1 (configuration not stated)
melting point (°C): 143
//
molecule: CC1CCC(C)(COC(=O)C2C(=O)C3(C)CCC2C3(C)C)C1(C)C (configuration not stated)
melting point (°C): 146

[a] CCOC(=O)NNC(=O)Nc1ccc(Cl)c(Cl)c1
[b] Nc1cc[nH]n1
Ask: Between the two listed entries a and b , which has its melting point at the higher number? Answer format: the label of the selected item.
Reply: a

[1] CC(=O)C1C(=O)C2(C)CCC1C2(C)C (configuration not stated)
[2] Cc1ccc2ccc(C)nc2c1
[3] O=C(O)Cc1cccc(Oc2ccccc2)c1
Ask: Arrange these molecules by their melting point, starting with the largest number. Respond with an ordered listing of the labels, as requested.
Reply: 1, 3, 2

[a] O=C(CCCN1CCC(O)(c2ccc(Cl)cc2)CC1)c1ccc(F)cc1
[b] Nc1cc(CO)ccn1
[c] Fc1cc(F)c(Br)c(F)c1
[d] CCCOc1ccc2[nH]c(NC(=O)OC)nc2c1
Ask: Ascending sort, melting point. Respond with an ordered listing of the labels, as requested.
Reply: c, b, a, d

[P] Cc1ccc2nc(-c3ccc(N)cc3)sc2c1
[Q] O=C(NCCO)C1CCCNC1 (configuration not stated)
Ask: Lower melting point: P or Q ? Answer format: the label of the selected item.
Reply: Q

Reference source: a melting point compilation (Tetko et al.)
